Where do the numbers come from? From ChEMBL document CHEMBL1153819.

molecular target: Neuronal acetylcholine receptor; alpha4/beta2 (Homo sapiens, UniProt P17787+P43681); assay: Activity at human alpha4beta2 nAChR expressed in Xenopus oocytes assessed as inhibition of acetylcholine-evoked current; type: cell-based, Oocyte
Sequence (P17787 whole entry): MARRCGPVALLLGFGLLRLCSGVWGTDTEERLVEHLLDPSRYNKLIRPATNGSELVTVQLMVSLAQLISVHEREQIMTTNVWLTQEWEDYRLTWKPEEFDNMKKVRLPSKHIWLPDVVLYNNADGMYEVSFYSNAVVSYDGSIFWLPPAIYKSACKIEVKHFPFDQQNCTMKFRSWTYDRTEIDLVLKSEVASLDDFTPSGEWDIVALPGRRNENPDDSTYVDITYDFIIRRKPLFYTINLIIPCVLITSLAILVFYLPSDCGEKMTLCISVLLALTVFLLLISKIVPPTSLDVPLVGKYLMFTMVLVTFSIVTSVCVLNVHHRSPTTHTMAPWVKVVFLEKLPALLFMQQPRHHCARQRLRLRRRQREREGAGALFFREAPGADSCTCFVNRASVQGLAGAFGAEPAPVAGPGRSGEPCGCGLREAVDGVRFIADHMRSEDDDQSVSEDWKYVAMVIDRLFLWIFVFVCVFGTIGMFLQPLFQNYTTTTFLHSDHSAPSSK
Sequence (P43681 whole entry): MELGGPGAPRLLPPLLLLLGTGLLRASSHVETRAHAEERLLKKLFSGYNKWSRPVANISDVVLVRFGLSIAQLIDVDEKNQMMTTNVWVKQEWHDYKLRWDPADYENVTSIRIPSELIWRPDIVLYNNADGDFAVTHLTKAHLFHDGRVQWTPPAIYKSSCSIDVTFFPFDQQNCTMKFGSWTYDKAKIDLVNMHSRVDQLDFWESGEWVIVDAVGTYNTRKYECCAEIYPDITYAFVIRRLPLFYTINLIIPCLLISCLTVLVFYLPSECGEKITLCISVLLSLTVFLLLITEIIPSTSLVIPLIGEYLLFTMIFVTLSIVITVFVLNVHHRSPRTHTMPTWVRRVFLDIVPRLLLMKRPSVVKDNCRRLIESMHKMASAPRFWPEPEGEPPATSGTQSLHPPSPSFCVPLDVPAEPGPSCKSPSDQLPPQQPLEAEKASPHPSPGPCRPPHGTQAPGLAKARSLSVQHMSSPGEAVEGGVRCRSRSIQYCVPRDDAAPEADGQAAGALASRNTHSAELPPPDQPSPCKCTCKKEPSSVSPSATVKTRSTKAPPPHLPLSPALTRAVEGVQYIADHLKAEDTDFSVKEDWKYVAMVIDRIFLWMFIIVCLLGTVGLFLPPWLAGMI
reportedEndpoint: IC50 (µM)
# unit: µM | format: bare number

Value of measured IC50 for the entry c1ccc(CN2C3CCC2CC(OC2c4ccccc4CCc4ccccc42)C3)cc1 (configuration not stated) : 0.46

# compound C[N+]1(C)C2CCC1CC(OC1c3ccccc3CCc3ccccc31)C2 (configuration not stated) ; its IC50 = 0.21

----------
molecular target: Acetylcholine-binding protein (Lymnaea stagnalis, UniProt P58154)
Sequence (P58154 whole entry): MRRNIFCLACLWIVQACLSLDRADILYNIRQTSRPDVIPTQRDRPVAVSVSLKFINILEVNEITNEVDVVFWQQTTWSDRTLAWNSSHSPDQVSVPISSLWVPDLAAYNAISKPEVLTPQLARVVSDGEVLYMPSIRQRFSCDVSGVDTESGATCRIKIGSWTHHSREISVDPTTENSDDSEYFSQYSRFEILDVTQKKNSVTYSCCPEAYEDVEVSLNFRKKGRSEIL
Field 'label' (enum: yes / no). Set to yes when Ki is strictly under 400 nM; else no.

Is 400 nM strictly greater than the compound's reported Ki? compound: c1ccc2c(c1)CCc1ccccc1C2OC1CCNCC1 no

Confirm or reject: Ki of CC(=O)OCC[N+](C)(C)C [ACETYLCHOLINE] lies strictly below 400 nM no

Lab note: Ki threshold 400 nM. Does this compound come in strictly under it? CN1C2CCC1CC(OC(=O)COC1c3ccccc3CCc3ccccc31)C2 (stereo not given) yes

Determine if NC(N)=NCCN1C2CCC1CC(OC1c3ccccc3CCc3ccccc31)C2 (stereo not given) shows Ki strictly lower than 400 nM. no

Check if Ki falls below 400 nM for N=C(CCN1C2CCC1CC(OC1c3ccccc3CCc3ccccc31)C2)NO (stereo not given) . no

Ki strictly < 400 nM for this compound? C[N+]1(C)C2CCC1CC(OC1c3ccccc3CCc3ccccc31)C2 (stereo not given) yes

Just wondering, is Ki of CN1CCC(OC2c3ccccc3CCc3ccccc32)CC1 [HEPZIDINE] below 400 nM? no

Determine whether this compound shows Ki lower than 400 nM (ties excluded): c1ccc(CN2C3CCC2CC(OC2c4ccccc4CCc4ccccc42)C3)cc1 (stereo not given) yes

Input CCCN1CCC(OC2c3ccccc3CCc3ccccc32)CC1 ; condition: Ki strictly below 400 nM. Does it hold? no

Could you please tell me whether Ki recorded for N#CCCN1C2CCC1CC(OC1c3ccccc3CCc3ccccc31)C2 (stereo not given) is less than 400 nM? no

Answer whether the compound c1ccc2c(c1)CCc1ccccc1C2OC1CC2CCC(C1)N2 (stereo not given) has Ki strictly less than 400 nM yes

Identify whether the compound Cc1cccc2c1CCc1ccccc1C2OC1CC2CCC(C1)N2C (stereo not given) records Ki below 400 nM. yes

# check: Ki < 400 nM for CCN1C2CCC1CC(OC1c3ccccc3CCc3ccccc31)C2 (stereo not given) yes

Please indicate whether the reported Ki of Cc1ccc2c(c1)C(OC1CC3CCC(C1)N3C)c1ccccc1CC2 (stereo not given) is strictly below 400 nM. yes

----------
For each of the compounds below, state its Ki.
target: Neuronal acetylcholine receptor subunit alpha-7 (Homo sapiens); test: Displacement of [125I]alpha-bungarotoxin from human alpha7 nAChR expressed in human SH-SY5Y cells
Sequence (P36544 whole entry): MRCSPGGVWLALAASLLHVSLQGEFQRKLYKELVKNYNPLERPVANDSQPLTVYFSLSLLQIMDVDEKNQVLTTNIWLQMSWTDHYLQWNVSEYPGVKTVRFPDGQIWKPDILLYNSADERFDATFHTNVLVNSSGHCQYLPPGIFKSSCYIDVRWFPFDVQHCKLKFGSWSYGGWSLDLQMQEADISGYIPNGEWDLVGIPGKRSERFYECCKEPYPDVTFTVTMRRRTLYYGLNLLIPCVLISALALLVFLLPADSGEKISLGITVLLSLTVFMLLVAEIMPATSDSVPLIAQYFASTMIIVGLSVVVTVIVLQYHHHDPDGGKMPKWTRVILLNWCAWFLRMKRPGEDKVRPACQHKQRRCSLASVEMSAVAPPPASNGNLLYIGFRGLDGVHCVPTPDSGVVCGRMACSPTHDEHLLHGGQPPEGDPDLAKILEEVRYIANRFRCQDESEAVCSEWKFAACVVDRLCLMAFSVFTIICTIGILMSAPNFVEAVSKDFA
Record the value in µM, omitting the unit from your answer.

Measured Ki, C[N+]1(C)C2CCC1CC(OC1c3ccccc3CCc3ccccc31)C2 (configuration not stated) : 2

Quick note, Ki for c1ccc(CN2C3CCC2CC(OC2c4ccccc4CCc4ccccc42)C3)cc1 (configuration not stated) landed at 12.6
